# assay system: Huntingtin (Homo sapiens)
# assay procedure: mutant huntingtin-calmodulin interaction inhibitors – biochemical, AlphaScreen, primary screen (AID 1671202);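 further: 0% = both proteins with DMSO and 100% = one protein alone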
# stated conditions: AlphaScreen His-mHTT/GST-CaM binding, luminescence; at 15 µM
About 6,900 (3.6%) of roughly 190,000 compounds were called active. No stated cut-off is given here; in the data, active means inhibition above about 50%; inactive means the rest. The list comes from a sample in which actives are over-represented; it also holds close analogues and randomly drawn compounds.
Please answer using one outcome listed in 1 (active), 0 (inactive)

Answered examples (3):
[[record]]
molecule = "Cn1cc(C2=CCN(S(=O)(=O)c3cccc(Cl)c3)CC2)c2cccnc21"
assay_system = "Huntingtin (Homo sapiens)"
answer_label = 0

[[record]]
molecule = "Cc1ccccc1-c1noc(C2CCCN2C(=O)NCc2ccc(F)cc2)n1 (centres undefined)"
assay_system = "Huntingtin (Homo sapiens)"
answer_label = 1

[[record]]
molecule = "O=C(Nc1cccc(NC(=O)c2ccccc2Cl)c1)c1ccccc1Cl"
assay_system = "Huntingtin (Homo sapiens)"
answer_label = 0


Next molecule, please.
Input line: Give the logged outcome of this assay for the following molecule: COc1ccc(C2CC(C(F)(F)F)n3ncc(C(=O)NC45CC6CC(CC(C6)C4)C5)c3N2)cc1 (centres undefined)
Output line: 0
